Data credit: the RNAGym collection of RNA variant scans (doi:10.1073/pnas.2313332121)

Reported polymerase ribozyme fitness (log ratio) is given for each of the following variants.
B1: TPR 5TU (parent)
chain: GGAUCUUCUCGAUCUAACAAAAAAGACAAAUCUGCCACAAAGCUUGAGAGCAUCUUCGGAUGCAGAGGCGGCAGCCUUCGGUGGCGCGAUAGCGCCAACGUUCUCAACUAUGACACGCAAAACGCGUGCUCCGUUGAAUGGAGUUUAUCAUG

- Variants of: B1
- EXPERIMENTAL_PROTOCOL: polymerase ribozyme fitness, log enrichment relative to wild type (log ratio); higher = more active; in vitro selection for triplet polymerase activity
Variants at the floor of the assay were thinned out.
Write the number on its own, no unit after it.

Past entries and their recorded results:
{"MUTATION_STRING": "C87U C105U A107U", "polymerase ribozyme fitness (log ratio)": -3.79}
{"MUTATION_STRING": "G83A C132G G133C", "polymerase ribozyme fitness (log ratio)": -2.67}
{"MUTATION_STRING": "U104G C118A A122C", "polymerase ribozyme fitness (log ratio)": -2.35}
{"MUTATION_STRING": "U56A A89G", "polymerase ribozyme fitness (log ratio)": -2.69}
{"MUTATION_STRING": "C105U A120G A122C", "polymerase ribozyme fitness (log ratio)": 0.479}
{"MUTATION_STRING": "C8U C54A", "polymerase ribozyme fitness (log ratio)": -3.8}
{"MUTATION_STRING": "U55A U139A", "polymerase ribozyme fitness (log ratio)": -4.05}
{"MUTATION_STRING": "A3U U55A G84A", "polymerase ribozyme fitness (log ratio)": -0.911}

Fill blank: measured polymerase ribozyme fitness (log ratio) of the variant A21G U144A is ____.
0.357

Fill blank: measured polymerase ribozyme fitness (log ratio) of the variant C76U C85U U101C U145G is ____.
-0.2

Fill blank: measured polymerase ribozyme fitness (log ratio) of the variant A39U A97U A119C is ____.
-3.36

Fill blank: measured polymerase ribozyme fitness (log ratio) of the variant A37G C54U is ____.
-2.05
